Experiment: CREB reporter modulators without forskolin, primary screen, cell-based, PC12, CRE-LacZ reporter, unstimulated (AID 1145)
Conditions: no forskolin, luminescence, 4.5 h, called active from +8 up or from −8 down
Calls of active or inactive are those of the source.
Hi there, use one of these labels in your reply, thanks! 1 (yes) = active, 0 (no) = inactive

Previously resolved entries follow.
INSERT INTO assay_data (compound, classlabel) VALUES
  ('CN1C(=O)C2C=CC(C(O)c3ccccn3)N(N(c3ccccc3)c3ccccc3)C2C1=O (configuration not stated)', '0 (no)'),
  ('[N-]=[N+]=NCc1ccccc1[C@@H]1OC(c2ccc(OCCCO)cc2)=N[C@]1(CCS(=O)(=O)c1ccccc1)C(=O)NCC(O)CO (some centres not stated)', '0 (no)'),
  ('C=C(C)[C@@H]1CC=C(C(O)C2C=CC3C(=O)N(c4ccccc4)C(=O)C3N2Nc2ccccc2F)CC1 (some centres not stated)', '0 (no)');

stdin: Field: outcome | Entry: C=CCNC(=O)[C@H]1[C@@H]2C(=O)O[C@@H](c3ccccc3)[C@@H](c3ccccc3)N2[C@@H](c2ccc(O)cc2)[C@]12C(=O)Nc1ccc(C#CC3(O)CCCCCC3)cc12
stdout: 0 (no)

stdin: Field: outcome | Entry: N#Cc1ccc(NN2C(C(O)c3ccc(F)cc3)C=CC3C(=O)N(c4ccccc4)C(=O)C32)cc1 (configuration not stated)
stdout: 0 (no)

stdin: Field: outcome | Entry: CCOC(=O)C[C@H]1[C@H](OC(=O)c2cc3ccccc3oc2=O)[C@@H](NC(=O)c2ccc(-c3ccccc3)cc2)c2cc(OCCCO)ccc2N1C(=O)c1ccc2ccccc2n1
stdout: 0 (no)

stdin: Field: outcome | Entry: COc1cc(CO)cc(I)c1O[C@H]1C=C(C(=O)NCCO)C[C@@H](NCc2ccc(F)cc2)[C@@H]1O
stdout: 1 (yes)

---

Assay: Plasmodium falciparum growth inhibition, primary screen, strain 3D7, DAPI fluorescence, 100 nL (AID 1184);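 also: parasites grown inside human red blood cells in medium with human serum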
Settings: P. falciparum 3D7 growth, 3 d, higher = more signal
readoutType: z-score
Simply state the number, no unit and no words.

Below: 5 compounds and their reported z-score.
INSERT INTO measurements (compound, result) VALUES
  ('O=C1OCC=C[C@H]2OC34C=CCN(Cc5ccccc5)C(=O)[C@H]3N(CCCCCCO)C(=O)[C@@H]4[C@@H]12 (stereo not given in full)', -1.16),
  ('Cc1ccc(S[C@]2(C(=O)NCC(F)(F)F)CC(=O)N(C3CCCCC3)[C@@H]2c2ccc(CO)cc2I)cc1', -0.142),
  ('C=CCC(OC(C)=O)[C@@H]1[C@@H](N(Cc2cc3ccccc3o2)C(=O)c2ccc(-c3ccccc3)cc2)c2cc(OCCCO)ccc2N1C(=O)c1ccc2ccccc2c1 (stereo not given in full)', -1.41),
  ('COCCOC(=O)N1C(=O)[C@@]2(c3cc(C#CC4=CCCCC4)ccc31)[C@H](c1ccc(O)cc1)N1[C@H](c3ccccc3)[C@H](c3ccccc3)OC(=O)[C@H]1[C@@H]2C(=O)N1CCN(c2ncccn2)CC1', 0.145),
  ('CCOc1cc(C(O)C2C=CC3C(=O)N(c4ccccc4)C(=O)C3N2Nc2ccc(C#N)cc2)ccc1O (stereo not given)', -0.435);

stdin: Specify reported z-score for the compound shown: COc1cc(OC)c(C(O)C2C=CC3C(=O)N(c4ccccc4)C(=O)C3N2Nc2ccccc2)cc1Br (stereo not given)
stdout: 0.0461

stdin: Specify reported z-score for the compound shown: CN(C)c1ccc(C(O)C2C=CC3C(=O)N(c4ccccc4)C(=O)C3N2Nc2ccc([N+](=O)[O-])cc2)cc1 (stereo not given)
stdout: -0.704

stdin: Specify reported z-score for the compound shown: COC(=O)C(CC#Cc1ccc2c(c1)[C@]1(C(=O)N2)[C@H](C(=O)N2CCN(c3ncccn3)CC2)[C@H]2C(=O)O[C@H](c3ccccc3)[C@H](c3ccccc3)N2[C@@H]1c1ccc(OCCO)cc1)C(=O)OC
stdout: -1.97
